Values from PubChem BioAssay

Reported values of z-score for individual entries
measured.on: NADPH oxidase 4 (Homo sapiens)
test.name: compounds shifting NOX4 Amplex Red fluorescence – cell-based, HEK293-NOX4, tetracycline-induced, NOX inhibitor project, primary screen (AID 1160)
assay.context: HEK293-NOX4, Amplex Red H2O2 fluorescence, 45 min; higher = more signal, called active from +8 up or from −8 down
property.name: z-score

[[record]]
compound = "COCCOC(=O)N1C(=O)[C@@]2(c3cc(C#CCCO)ccc31)[C@H](c1ccc(OCCO)cc1)N1[C@H](c3ccccc3)[C@H](c3ccccc3)OC(=O)[C@H]1[C@@H]2C(=O)N1CCc2cc(OC)c(OC)cc2C1"
numeric_value = 1.01

[[record]]
compound = "O=C1O[C@H](c2ccccc2)[C@H](c2ccccc2)N2[C@H]1[C@@H](C(=O)N1CCCCCCC1)[C@]1(C(=O)Nc3ccccc31)[C@H]2c1ccc(O)cc1"
numeric_value = -1.03

[[record]]
compound = "CCCC=C(CCC)[C@@H](NS(=O)(=O)c1cccc2cccnc12)c1ccc(C(=O)OC)cc1"
numeric_value = 0.212

[[record]]
compound = "COc1ccc(CCNC(=O)[C@@H]2c3ccccc3C(=O)N(Cc3ccccc3)[C@H]2c2ccc(CO)cc2)cc1"
numeric_value = -0.909

[[record]]
compound = "CCOC(=O)C1=CC[C@@H](c2cccc(Br)c2)N(S(=O)(=O)c2ccc(C)cc2)[C@H]1c1ccc([N+](=O)[O-])cc1"
numeric_value = 0.77

[[record]]
compound = "CN(C)CCCNC(=O)[C@@]1(Cc2ccccc2I)c2ccccc2C(=O)N(Cc2ccccc2Cl)[C@H]1c1ccc(CO)cc1"
numeric_value = -4.71

[[record]]
compound = "CC1CC/C=C\\[C@H]2OC34C=CCN(Cc5ccccc5)C(=O)[C@H]3N(CCO)C(=O)[C@@H]4C2C(=O)O1 (some centres undefined)"
numeric_value = 0.0441

[[record]]
compound = "COC(=O)[C@@]1(Cc2ccc(F)cc2)[C@H]2c3cc(C(=O)N(C)C)n(Cc4ccc(C)c(F)c4F)c3C[C@H]2CN1C(=O)c1ccccc1"
numeric_value = -0.0461

[[record]]
compound = "COc1ccc(C#Cc2ccc3c(c2)[C@]2(C(=O)N3)[C@H](C(=O)O)[C@H]3C(=O)O[C@H](c4ccccc4)[C@H](c4ccccc4)N3[C@@H]2c2ccc(OCCO)cc2)cc1"
numeric_value = -0.925


====

Reported values of z-score for individual entries
test.name: hepatitis C replication reporter changes, two-sided – Huh7 cells, luciferase reporter, HCV replication inhibitor project, primary screen (AID 1109);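 further: huh7 hepatoma cells harbouring a luciferase neomycin HCV replicon reporter; luciferase luminescence as measure of HCV replicon replication; test concentration not given here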
assay.context: Huh7 HCV replicon luciferase reporter, 48 h; higher = more signal
property.name: z-score

[[record]]
smiles = "Cc1ccc(S[C@]2(C(=O)NCC(C)C)CC(=O)N(C3CCCCC3)[C@@H]2c2ccc(CO)cc2I)cc1"
numeric_value = -2.6

[[record]]
smiles = "CCCCC(=C=CC[C@H](O)c1ccccc1OCCO)C[C@H](O)c1ccccn1"
numeric_value = -0.619

[[record]]
smiles = "O=C(O)[C@]1(CCS(=O)(=O)c2ccccc2)N=C(c2ccc(OCCCO)cc2)O[C@@H]1c1ccccc1"
numeric_value = -0.0254

[[record]]
smiles = "CO[C@H]1O[C@H](CO)[C@@H](OC(=O)Nc2ccc(C(F)(F)F)cc2)[C@H](OC(=O)Nc2ccccc2)[C@H]1OC(=O)Nc1ccccc1"
numeric_value = -3.84

[[record]]
smiles = "CC(=O)NCCCC[C@@H]1NC(=O)[C@@H]2C[C@H](C(=O)NCCCC[N+](C)(C)C)[C@H](c3cccc(OCCO)c3)N2C1=O"
numeric_value = -0.703

[[record]]
smiles = "C[N+](C)(C)CCCC[C@@H]1NC(=O)[C@@H]2C[C@H](C(=O)NCCCCCNC(=O)CS)[C@H](c3cccc(OCCO)c3)N2C1=O"
numeric_value = -0.193

[[record]]
smiles = "CC(C)(C)OC(=O)CC[C@]1(C(=O)O)COC(c2ccc(OCCCO)cc2)=N1"
numeric_value = 0.0847

[[record]]
smiles = "C=CC[C@@]1(C(=O)NCCN2CCOCC2)N=C(c2ccc(OCCCO)cc2)O[C@@H]1c1ccccc1"
numeric_value = -1.34

[[record]]
smiles = "COCCOC(=O)N1C(=O)[C@@]2(c3cc(C#Cc4ccc(OC)cc4)ccc31)[C@H](C(=O)N1CCc3cc(OC)c(OC)cc3C1)[C@H]1C(=O)O[C@H](c3ccccc3)[C@H](c3ccccc3)N1[C@@H]2c1ccc(O)cc1"
numeric_value = -0.246

[[record]]
smiles = "O=C1O[C@H](c2ccccc2)[C@H](c2ccccc2)N2[C@H]1[C@@H](C(=O)N1CCN(c3ncccn3)CC1)[C@]1(C(=O)Nc3ccc(C#CCCO)cc31)[C@H]2c1ccc(OCCO)cc1"
numeric_value = -1.35

[[record]]
smiles = "C=CCOC(=O)[C@@H]1[C@H]2C(=O)O[C@H](c3ccccc3)[C@H](c3ccccc3)N2[C@H](c2ccc(OCCOC(=O)[C@H]3C[C@H]4C(=O)N[C@@H](Cc5ccccc5)C(=O)N4[C@H]3c3cccc(OCCO)c3)cc2)[C@@]12C(=O)Nc1ccc(I)cc12"
numeric_value = -2.08

[[record]]
smiles = "COCCCNC(=O)[C@@]1(Cc2ccccc2CN=[N+]=[N-])N=C(c2ccc(OCCCO)cc2)O[C@H]1c1ccccc1N=[N+]=[N-]"
numeric_value = -2.3

[[record]]
smiles = "COCCOC(=O)N1C(=O)[C@@]2(c3cc(C#CCCO)ccc31)[C@H](C(=O)NC[C@H](O)c1ccccc1)[C@H]1C(=O)O[C@H](c3ccccc3)[C@H](c3ccccc3)N1[C@@H]2c1ccccc1OCCO"
numeric_value = -1.31

[[record]]
smiles = "COCCOC(=O)N1C(=O)[C@@]2(c3ccccc31)[C@H](c1ccccc1OCCO)N1[C@H](c3ccccc3)[C@H](c3ccccc3)OC(=O)[C@H]1[C@@H]2C(=O)N1CCc2cc(OC)c(OC)cc2C1"
numeric_value = -2.37

[[record]]
smiles = "C[N+](C)(C)CCCC[C@@H]1NC(=O)[C@H]2C[C@@H](C(=O)NCCCCCCN)[C@@H](c3cccc(OCCO)c3)N2C1=O"
numeric_value = 0.347

[[record]]
smiles = "OCc1ccc(-c2cc[n+](Cc3cccc(OC(F)(F)F)c3)cc2)cc1"
numeric_value = 0.717


====

Reported values of composite z-score for individual entries
Tested on: Fibrinogen (Alexa647-labelled)
test.name: Alexa647-fibrinogen binding to printed small molecules – biochemical, small-molecule microarray, 635/667 nm fluorescence, artefact control for SMM control-protein annotation, profiling panel (AID 1131);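 further: z-score merges 667 nm fluorescence with per-spot signal-to-noise over triplicate slides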
assay.context: fibrinogen-A647 binding fluorescence, higher = more signal
property.name: composite z-score

[[record]]
compound = "CN1C(=O)C2C=CC(C(O)c3cccc4ccccc34)N(NC(=O)OC(C)(C)C)C2C1=O (centres undefined)"
numeric_value = 0.691

[[record]]
compound = "CN1C(=O)C2C=CC(C(O)COCc3ccccc3)N(Nc3ccccc3)C2C1=O (centres undefined)"
numeric_value = 0.711

[[record]]
compound = "CC(C)C[C@@H]1NC(=O)[C@@H]2C[C@H](C(=O)NCc3ccc(F)cc3)[C@H](c3ccc(O)cc3)N2C1=O"
numeric_value = 0.248

[[record]]
compound = "CC(C)CCC[C@@H](C)[C@H]1CC[C@@]2(C)C3=C(CC[C@]12C)[C@@]1(C)CC[C@H](OC(=O)c2ccc(N)cc2)C(C)(C)C1CC3 (some centres undefined)"
numeric_value = 0.483

[[record]]
compound = "CC(C)c1ccc(NN2C(C(O)c3ccccn3)C=CC3C(=O)N(c4ccccc4)C(=O)C32)cc1 (centres undefined)"
numeric_value = 0.947

[[record]]
compound = "COCCCNC(=O)[C@@]1(Cc2ccccc2CN=[N+]=[N-])N=C(c2ccc(OCCCO)cc2)O[C@H]1c1ccccc1N=[N+]=[N-]"
numeric_value = 0.931

[[record]]
compound = "COC(=O)[C@@]1(Cc2ccccc2)[C@H]2c3cc(C(=O)N4CCCC4)n(CCO)c3C[C@H]2CN1C(=O)c1ccccc1"
numeric_value = 0.488

[[record]]
compound = "COCCCNC(=O)[C@@H]1c2ccccc2C(=O)N(c2ccc(C)cn2)[C@H]1c1ccc(CO)cc1"
numeric_value = -1.04

[[record]]
compound = "COCCOC(=O)N1C(=O)[C@@]2(c3cc(C#CCC(C(=O)OC)C(=O)OC)ccc31)[C@H](C(=O)N1CCCCCCC1)[C@H]1C(=O)O[C@H](c3ccccc3)[C@H](c3ccccc3)N1[C@@H]2c1ccc(O)cc1"
numeric_value = 0.59

[[record]]
compound = "CC1CC/C=C\\[C@H]2OC34C=CCN(c5ccc(Cl)cc5)C(=O)[C@H]3N(C(CO)C(C)C)C(=O)[C@]4(C)C2C(=O)O1 (some centres undefined)"
numeric_value = -0.787

[[record]]
compound = "CN1C(=O)C2C=CC(C(O)c3ccc(F)cc3)N(N3CCCCC3)C2C1=O (centres undefined)"
numeric_value = 0.167

[[record]]
compound = "O=C(Nc1cc(Br)ccc1C(=O)NCc1cccc(O)c1)c1ccccc1"
numeric_value = 0.828

[[record]]
compound = "COc1ccc([Si](C)(C)[C@@H]2[C@@H](CCO)O[C@]3(C(=O)N(Cc4ccc(N5C(=O)c6ccccc6Oc6ccccc65)cc4)c4ccccc43)[C@H]2C)cc1"
numeric_value = -0.0953

[[record]]
compound = "C[C@H]1NC(=O)C([C@@H](C)OCc2ccccc2)NC(=O)[C@@]23C(=O)N[C@@H](Cc4ccccc4)C2[C@H](C)[C@@]2(C)O[C@H]2C3/C=C/CC/C=C/CNC1=O (some centres undefined)"
numeric_value = 0.42

